Source: patent US20260132123A1

- Study system: 17β-HSD10 (Homo sapiens)
- Construct: Histev (histidine tag with TEV site) (N, cleaved yes); made in house; host or cells: E. coli BL21-CodonPlus
- Sequence (Q99714 whole entry): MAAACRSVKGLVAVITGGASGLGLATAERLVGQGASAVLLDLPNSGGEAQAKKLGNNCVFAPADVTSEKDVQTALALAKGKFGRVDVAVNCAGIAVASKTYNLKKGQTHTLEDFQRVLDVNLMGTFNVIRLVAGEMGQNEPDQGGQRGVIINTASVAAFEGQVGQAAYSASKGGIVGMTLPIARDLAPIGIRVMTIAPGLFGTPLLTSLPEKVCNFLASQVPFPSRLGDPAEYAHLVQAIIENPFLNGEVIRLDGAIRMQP
- Experimental details: 17β-HSD10 (ABAD) enzyme inhibition assay, NADH oxidation read at 340 nm (primary screen and dose response)
- Assay type: biochemical
- Condition context: recombinant 17βHSD10 enzyme assay, curve fit
Min. Fit: recorded values
Measurement kind: Min. Fit

* CC(C)N(C(=O)c1ccccc1F)c1cccc(N(C)Cc2cnc[nH]2)c1 | −1
* Cc1ccsc1C(=O)N1CCC[C@H]1c1ccccc1-c1ccc(C(F)(F)F)cc1 | 0
* Cc1ccsc1C(=O)N1CCC[C@H]1c1ccccc1-c1ccc(C#N)cc1 | 0
* CC(C)CN(C(=O)c1c(F)cccc1F)c1cccc(N(C)Cc2c[nH]cn2)c1 | 17
* Cc1ccsc1C(=O)N1CCC[C@H]1c1ccccc1-c1cccc(C(F)(F)F)c1 (racemic) [ESC1002790] | −1
* Cc1ccsc1C(=O)N1CCC[C@H]1c1ccccc1-c1ccccc1Cl (single isomer, unassigned) [ESC1002767] | −2
* CC(C)CN(C(=O)c1cccc2ccccc12)c1cccc(N(C)Cc2cnc[nH]2)c1 | 0
* CC(C)CN(C(=O)c1ccccc1F)c1cccc(N(C)Cc2c[nH]cn2)n1 | 0
* COc1cccc(-c2ccccc2[C@@H]2CCCN2C(=O)c2cn[nH]c2)c1 (racemic) | −7
* CC(C)CN(C(=O)c1ccccc1F)c1cccc(N(C)Cc2c[nH]nn2)c1 | −2
* O=C(c1sccc1Cl)N1CCCC1c1ccccc1-c1cccc(O)c1 (racemic) | 0
* CC(C)CN(C(=O)c1ccccc1)c1cccc(N(C)Cc2cnc[nH]2)c1 | 0
* Cc1ccc(C(=O)N(c2cccc(N(C)Cc3cnc[nH]3)c2)C(C)C)cc1 | 0
* Cc1ccc(C(=O)N(CC2CC2)c2cccc(N(C)Cc3c[nH]cn3)c2)cc1 | 2
* Cc1ccsc1C(=O)N1CCC[C@@H]1c1ccccc1-c1ccccc1 | 6
* COc1cccc(-c2ccccc2[C@H]2CCCN2C(=O)c2cccs2)c1 | −8
* COc1cccc(-c2ccccc2[C@@H]2CCCN2C(=O)c2ncc[nH]2)c1 (racemic) | 1
* CC(C)CN(C(=O)c1ccccc1F)c1cccc(N(C)Cc2cc[nH]n2)n1 | −4
* CC(C)CN(C(=O)c1ccccc1F)c1cccc(N(C)Cc2nc[nH]n2)c1 | −4
* COc1ccc(-c2ccccc2[C@H]2CCCN2C(=O)c2sccc2C)cn1 (single isomer, unassigned) | 0
* Cc1ccsc1C(=O)N1CCC[C@H]1c1ccccc1-c1cccc(C(F)(F)F)c1 [ESC1002320] | −1
* COc1ccccc1C(=O)N(CC(C)C)c1cccc(N(C)Cc2c[nH]cn2)c1 | −7
* CNC(=O)CN(C)c1cccc(N(CC(C)C)C(=O)c2ccccc2F)c1 | 2
* Cc1ccsc1C(=O)N1CCC[C@H]1c1ccccc1-c1cccc(C)c1C | 7
* Cc1ccc(C(=O)N(CC(C)C)c2cccc(N(C)Cc3c[nH]cn3)c2)c(F)c1 | 10
* Cc1ccsc1C(=O)N1CCC[C@H]1c1ccccc1-c1cccc(Cl)c1 [ESC1002321] | 4
* O=C(c1[nH]ncc1Cl)N1CCC[C@H]1c1ccccc1-c1cccc(O)c1 (single isomer, unassigned) | −3
* CC(C)CN(C(=O)c1ccncn1)c1cccc(N(C)Cc2c[nH]cn2)c1 | −5
* CCCC(=O)N(CC(C)C)c1cccc(N(C)Cc2cnc[nH]2)c1 | −3
* COc1ccc(C(=O)N(CC(C)C)c2cccc(N(C)Cc3c[nH]cn3)c2)c(F)c1 | −3
* CC(C)CN(C(=O)c1ccccc1F)c1cccc(N(C)Cc2ccn[nH]2)c1 [ESC1002206] | 0
* CC(C)CN(C(=O)c1ccccc1F)c1cccc(N(C)Cc2cn(C)cn2)c1 | 0
* CC(C)CN(C(=O)C(C)C)c1cccc(N(C)Cc2cnc[nH]2)c1 | 0
* Cc1ccsc1C(=O)N1CCC[C@H]1c1ccccc1-c1ccc(Cl)cc1Cl | −7
